- Experimental system: α5-GABAA receptor (Homo sapiens, UniProt P18507+P31644)
- Construct: expressed in transfected cells; host or cells: HEK293, monoclonal stably transfected line
- Sequence (P31644 32-462): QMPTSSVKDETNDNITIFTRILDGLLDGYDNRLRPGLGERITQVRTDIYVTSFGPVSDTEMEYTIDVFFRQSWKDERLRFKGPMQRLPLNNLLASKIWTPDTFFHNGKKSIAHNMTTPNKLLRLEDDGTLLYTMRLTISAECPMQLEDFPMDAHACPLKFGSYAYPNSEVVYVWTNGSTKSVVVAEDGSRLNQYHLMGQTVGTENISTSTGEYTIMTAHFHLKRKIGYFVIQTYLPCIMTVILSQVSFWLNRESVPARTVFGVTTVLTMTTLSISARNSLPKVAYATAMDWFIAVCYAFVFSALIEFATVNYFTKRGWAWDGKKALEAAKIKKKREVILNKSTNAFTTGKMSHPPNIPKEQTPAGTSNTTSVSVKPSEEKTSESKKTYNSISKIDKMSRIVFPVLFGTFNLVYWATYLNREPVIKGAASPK
- Sequence (P28472 26-473 partner): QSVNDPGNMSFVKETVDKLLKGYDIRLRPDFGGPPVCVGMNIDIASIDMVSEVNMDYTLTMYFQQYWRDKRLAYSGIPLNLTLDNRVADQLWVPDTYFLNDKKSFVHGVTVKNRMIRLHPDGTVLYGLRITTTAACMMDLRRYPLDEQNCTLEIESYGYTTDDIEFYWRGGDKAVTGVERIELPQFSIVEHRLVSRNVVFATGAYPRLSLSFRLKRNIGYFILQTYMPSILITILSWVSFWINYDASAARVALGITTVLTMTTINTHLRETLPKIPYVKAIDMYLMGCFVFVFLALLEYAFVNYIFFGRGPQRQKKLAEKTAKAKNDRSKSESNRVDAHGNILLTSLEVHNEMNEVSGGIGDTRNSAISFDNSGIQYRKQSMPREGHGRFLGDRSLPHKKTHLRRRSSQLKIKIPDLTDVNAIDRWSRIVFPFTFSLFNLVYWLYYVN
- Sequence (P18507 40-467 isoform P18507-1 limits assumed): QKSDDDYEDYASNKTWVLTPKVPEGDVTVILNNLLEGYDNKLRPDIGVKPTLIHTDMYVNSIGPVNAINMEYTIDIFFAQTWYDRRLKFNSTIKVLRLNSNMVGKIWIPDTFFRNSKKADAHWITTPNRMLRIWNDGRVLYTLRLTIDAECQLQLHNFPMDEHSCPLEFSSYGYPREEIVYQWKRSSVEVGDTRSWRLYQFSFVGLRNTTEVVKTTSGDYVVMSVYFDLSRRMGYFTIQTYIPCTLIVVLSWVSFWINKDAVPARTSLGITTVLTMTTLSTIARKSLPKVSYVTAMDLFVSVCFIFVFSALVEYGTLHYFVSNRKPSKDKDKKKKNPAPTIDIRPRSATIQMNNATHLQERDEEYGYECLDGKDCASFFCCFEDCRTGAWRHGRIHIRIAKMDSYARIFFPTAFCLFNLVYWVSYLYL
- Method: Cell-level screening: whole cell patch clamp, inverse agonist efficacy on α5-GABAA receptor expressed in HEK293
- Assay type: cell-based
- Condition info: drug 100 nM, GABA 0.05 μM, HEK293 expressing α5, β3 and γ2 subunits, clamped at −60 mV; read-out: Compound inverse agonist efficacy %
Test readout: inhibition at 0.1 µM (%)
Give your result in % as a bare value.

CCN1CC(Oc2ccc(COc3nn4c(-c5cc(C)on5)nnc4cc3OC)nc2)C1; 30.4
COCCOc1nccc2nc(COc3nn4c(-c5cc(C)on5)nnc4cc3OC)ccc12; 33.4
COc1cc2nnc(-c3cc(C)on3)n2nc1OCc1ccc2c(cnn2C2COC2)n1; 61.5
COc1cc2nnc(-c3cc(C)on3)n2nc1OCc1ccc2c(n1)CCN(C(=O)CC#N)C2; 49.6

For "COCCOc1cnc(COc2nn3c(-c4cc(C)on4)nnc3cc2OC)cn1" the compound record lists inhibition at 0.1 µM as 57.3

For "COc1cc2nnc(-c3cc(C)on3)n2nc1OCc1ccc2cnccc2n1" the compound record lists inhibition at 0.1 µM as 49.3

For "COc1cc2nnc(-c3cc(C)on3)n2nc1OCc1ccc(C2CCC2)cn1" the compound record lists inhibition at 0.1 µM as 21.6

For "COc1nccc(COc2nn3c(-c4cc(C)on4)nnc3cc2OC)n1" the compound record lists inhibition at 0.1 µM as 54.3

For "COc1cc2nnc(-c3cc(C)on3)n2nc1OCc1cccnn1" the compound record lists inhibition at 0.1 µM as 36.5

For "COc1cc2nnc(-c3cc(C)on3)n2nc1OCc1ccc(C(=O)O)cn1" the compound record lists inhibition at 0.1 µM as 24.2

For "COc1cc2nnc(-c3cc(C)on3)n2nc1OCc1ccc2c(n1)c(C)nn2C1COC1" the compound record lists inhibition at 0.1 µM as 54.7

For "COCCCn1ccc2nc(COc3nn4c(-c5cc(C)on5)nnc4cc3OC)ccc2c1=O" the compound record lists inhibition at 0.1 µM as 49

For COc1cc2nnc(-c3cc(C)on3)n2nc1OCc1ccc(OCC2CCCO2)nn1 (centres unmarked) the compound record lists inhibition at 0.1 µM as 49.8

For "COc1cc2nnc(-c3cc(C)on3)n2nc1OCc1ccc2c(=O)n(C3COC3)ccc2n1" the compound record lists inhibition at 0.1 µM as 42

For COc1cc2nnc(-c3cc(C)on3)n2nc1OCc1ccc(C2(F)CCCNC2)cn1 (centres unmarked) the compound record lists inhibition at 0.1 µM as 48.1

For "CCc1cn2nc(COc3nn4c(-c5cc(C)on5)nnc4cc3OC)ccc2n1" the compound record lists inhibition at 0.1 µM as 50.1

For "COc1cc2nnc(-c3cc(C)on3)n2nc1OCc1cc(OC2COC2)ccn1" the compound record lists inhibition at 0.1 µM as 47.6

###

- Method: Thermodynamic solubility in simulated intestinal fluid (TS in FaSSIF)
- Format: physicochemical
- Condition info: thermodynamic from solid, 37° C.
Test readout: solubility thermodynamic at 4 h (µg/mL)
Give your result in µg/mL as a bare value.

For "COc1cnnc(COc2nn3c(-c4cc(C)on4)nnc3cc2OC)c1" the compound record lists solubility thermodynamic at 4 h as 143
